src = patent US8937077B2

target: Jak1 (Homo sapiens, UniProt P23458); construct: using a recombinant purified GST-tagged catalytic domain for each enzyme; GST; purchased Invitrogen M4290; test: Jak Biochemical HTRF Assay (Jak1); conditions: Representative IC50 values, recombinant GST-tagged catalytic domain, 31.8 μM ATP
Sequence (P23458 875-1153 limits assumed): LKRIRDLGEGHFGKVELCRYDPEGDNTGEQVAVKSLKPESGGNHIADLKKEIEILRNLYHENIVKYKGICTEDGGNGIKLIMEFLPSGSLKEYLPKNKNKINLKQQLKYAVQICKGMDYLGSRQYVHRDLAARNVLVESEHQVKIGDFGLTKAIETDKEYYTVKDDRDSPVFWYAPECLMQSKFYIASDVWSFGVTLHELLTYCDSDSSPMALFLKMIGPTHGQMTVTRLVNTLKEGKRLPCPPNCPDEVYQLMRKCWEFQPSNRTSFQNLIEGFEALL
measured quantity: IC50

CC1CCN(C(=O)OCc2ccccc2)C2CCN(c3ncnc4[nH]ccc34)C12 (stereo not shown) [Example 20] ... 12 nM

###

target: Jak1 (Homo sapiens, UniProt P23458); construct: using a recombinant purified GST-tagged catalytic domain for each enzyme; GST; purchased Invitrogen M4290; assay: Jak Biochemical HTRF Assay (Jak1); conditions: IC50 class, recombinant GST-tagged catalytic domain, read-out: Jak1 activity
measured quantity: IC50

O=C(OCCN1CCS(=O)(=O)CC1)N1CCC[C@@H]2[C@H]1CCN2c1ncnc2[nH]ccc12 ... 100 to 1000 nM
O=C(c1cccc2cccnc12)N1CCC[C@@H]2[C@H]1CCN2c1ncnc2[nH]ccc12 ... 100 to 1000 nM
O=C(c1cccnc1)N1CCC[C@@H]2[C@H]1CCN2c1ncnc2[nH]ccc12 ... 10 to 100 nM
O=C(c1cc2ccsc2[nH]1)N1CCC[C@@H]2[C@H]1CCN2c1ncnc2[nH]ccc12 ... 100 to 1000 nM
COc1ccc(COC(=O)N2CCCC3C2CCN3c2ncnc3[nH]ccc23)cc1 (stereo not drawn) ... 1 to 10 nM
COc1cccc(COC(=O)N2CCCC3C2CCN3c2ncnc3[nH]ccc23)c1 (stereo not drawn) ... 10 to 100 nM

###

target: Jak1 (Homo sapiens, UniProt P23458); construct: using a recombinant purified GST-tagged catalytic domain for each enzyme; GST; purchased Invitrogen M4290; assay: Jak Biochemical HTRF Assay (Jak1); settings: IC50 class, recombinant GST-tagged catalytic domain, read-out: Jak1 activity
measured quantity: IC50

O=C(c1ccc(N2CCOCC2)cc1)N1CCCC2C1CCN2c1ncnc2[nH]ccc12 (centres unmarked) ... 0.1 to 1 µM
O=C(OCc1ccc(F)cc1)N1CCCC2C1CCN2c1ncnc2[nH]ccc12 (centres unmarked) ... 0.01 to 0.1 µM
COC(=O)c1ccc(CCCN2CCC[C@@H]3[C@H]2CCN3c2ncnc3[nH]ccc23)cc1 ... 0.1 to 1 µM
CO[C@](C(=O)N1CCC[C@@H]2[C@H]1CCN2c1ncnc2[nH]ccc12)(c1ccccc1)C(F)(F)F ... 0.1 to 1 µM
O=C(c1ccccn1)N1CCC[C@@H]2[C@H]1CCN2c1ncnc2[nH]ccc12 ... 0.1 to 1 µM
O=C(OCCc1ccccc1)N1CCCC2C1CCN2c1ncnc2[nH]ccc12 (centres unmarked) ... 0.01 to 0.1 µM
O=C(OCC1CCCCC1)N1CCC[C@@H]2[C@H]1CCN2c1ncnc2[nH]ccc12 ... 0.01 to 0.1 µM
COCC(=O)N1CCC[C@@H]2[C@H]1CCN2c1ncnc2[nH]ccc12 (single isomer, unassigned) ... 0.1 to 1 µM

###

molecular target: Jak1 (Homo sapiens, UniProt P23458); construct: using a recombinant purified GST-tagged catalytic domain for each enzyme; GST; purchased Invitrogen M4290; assay: Jak Biochemical HTRF Assay (Jak1); conditions: IC50 class, recombinant GST-tagged catalytic domain, read-out: Jak1 activity
measured quantity: IC50

CC(C)(C)OC(=O)NCc1ccc(COC(=O)N2CCC[C@@H]3[C@H]2CCN3c2ncnc3[nH]ccc23)cc1 ... 100 to 1000 nM
N#Cc1cccc(C(=O)N2CCC[C@@H]3[C@H]2CCN3c2ncnc3[nH]ccc23)c1 ... 10 to 100 nM
O=C(OCCc1ccccn1)N1CCC[C@@H]2[C@H]1CCN2c1ncnc2[nH]ccc12 ... 10 to 100 nM
O=C(C1CCCCC1)N1CCC[C@@H]2[C@H]1CCN2c1ncnc2[nH]ccc12 ... 10 to 100 nM
